Where these numbers come from: patent US20210206877A1

As shown below, each of these binders has a reported % inhibition, FRET short substrate assay (negative = activation) value.
Molecular target: human BACE1 ECD (human, UniProt P56817); note: test concentration or dose not given here
Sequence (P56817 22-457): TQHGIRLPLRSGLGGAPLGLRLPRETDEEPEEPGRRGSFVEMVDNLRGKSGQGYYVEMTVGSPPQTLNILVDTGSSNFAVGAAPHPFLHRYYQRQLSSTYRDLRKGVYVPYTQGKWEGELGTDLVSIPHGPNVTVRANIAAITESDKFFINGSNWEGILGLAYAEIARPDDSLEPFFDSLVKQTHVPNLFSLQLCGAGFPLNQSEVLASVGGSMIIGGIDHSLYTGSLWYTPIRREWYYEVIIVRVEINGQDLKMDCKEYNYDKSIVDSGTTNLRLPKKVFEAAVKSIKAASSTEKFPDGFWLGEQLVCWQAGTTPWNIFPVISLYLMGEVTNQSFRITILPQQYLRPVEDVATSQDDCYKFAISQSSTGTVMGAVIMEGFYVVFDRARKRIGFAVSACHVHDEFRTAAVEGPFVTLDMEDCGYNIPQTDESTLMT
Assay: cell-based or functional assay
observation.type: % inhibition, FRET short substrate assay (negative = activation)

binder	reported
5260 (antibody, V domains shown) VH: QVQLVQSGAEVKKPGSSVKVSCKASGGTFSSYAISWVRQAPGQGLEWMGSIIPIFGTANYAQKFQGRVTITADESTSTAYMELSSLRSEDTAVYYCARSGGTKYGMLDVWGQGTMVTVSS VL: EIVMTQSPATLSVSPGERATLSCRASQSVGSNLAWYQQKPGQAPRLLIYGASTRATGIPARFSGSGSGTEFTLTISSLQSEDFAVYYCQQAVVWPPRTFGGGTKVEIK	-54%
5892 (antibody, V domains shown) VH: QVQLVQSGAEVKKPGSSVKVSCKASGGTFSSYAISWVRQAPGQGLEWMGNIIPIFGTATYAQKFQGRVTITADESTSTAYMELSSLRSEDTAVYYCARSGGTKYGMLDVWGQGTMVTVSS VL: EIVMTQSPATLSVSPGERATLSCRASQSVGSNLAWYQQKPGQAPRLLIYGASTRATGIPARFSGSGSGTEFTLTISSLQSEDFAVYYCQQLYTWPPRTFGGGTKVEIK	64%
